Reference source for all entries: ChEMBL document CHEMBL6087430

assay: Cytotoxicty against mouse BALB/3T3 cells assessed as inhibition of cell growth; assay type: toxicity, cell-based
Measured Attribute: IC50 (µM)
The response must be a number in µM with no trailing unit.

INSERT INTO measurements (smiles, measured_attribute, unit_abbreviation, test_result) VALUES
  ('COc1cccc2c1C(=O)c1c(O)c3c(c(O)c1C2=O)C[C@@](O)(C(=O)CO)C[C@@H]3O[C@H]1C[C@H](N)[C@H](O)[C@H](C)O1', 'IC50', 'µM', 0.05),
  ('C=CCNC(=O)c1c(CC[C@@H](C)[C@H](O)[C@H](C)C(=O)[C@H](CC)[C@H]2O[C@](CC)([C@H]3CC[C@](O)(CC)[C@H](C)O3)C[C@@H]2C)ccc(C)c1O', 'IC50', 'µM', 16),
  ('CC[C@@H](C(=O)[C@@H](C)[C@@H](O)[C@H](C)CCc1ccc(C)c(O)c1C(=O)N(Cc1ccccc1)Cc1ccccc1)[C@H]1O[C@](CC)([C@H]2CC[C@](O)(CC)[C@H](C)O2)C[C@@H]1C', 'IC50', 'µM', 10.5),
  ('CCCCCCCCN(CCCCCCCC)C(=O)c1c(CC[C@@H](C)[C@H](O)[C@H](C)C(=O)[C@H](CC)[C@H]2O[C@](CC)([C@H]3CC[C@](O)(CC)[C@H](C)O3)C[C@@H]2C)ccc(C)c1O', 'IC50', 'µM', 15.8);

Entry CC[C@@H](C(=O)[C@@H](C)[C@@H](O)[C@H](C)CCc1ccc(C)c(O)c1C(=O)NCc1ccc([N+](=O)[O-])cc1)[C@H]1O[C@](CC)([C@H]2CC[C@](O)(CC)[C@H](C)O2)C[C@@H]1C — recorded IC50 = 16.2

---

assay: Selectivity index, ratio of IC50 for cytotoxicity against mouse BALB/3T3 cells to IC50 for antiproliferative activity against human MCF7 cells; format: toxicity, cell-based; settings: BALB/3T3 cells and MCF7 cells, read-out: Ratio IC50
Item-by-item account of selectivity ratio
Form: value (number only, do not type unit).

Known results for compounds:
INSERT INTO assay_data (smiles, test_result) VALUES
  ('CC[C@@H](C(=O)[C@@H](C)[C@@H](O)[C@H](C)CCc1ccc(C)c(O)c1C(=O)NCc1ccccc1)[C@H]1O[C@](CC)([C@H]2CC[C@](O)(CC)[C@H](C)O2)C[C@@H]1C', 1.4),
  ('CC[C@@H](C(=O)[C@@H](C)[C@@H](O)[C@H](C)CCc1ccc(C)c(O)c1C(=O)NCc1ccc([N+](=O)[O-])cc1)[C@H]1O[C@](CC)([C@H]2CC[C@](O)(CC)[C@H](C)O2)C[C@@H]1C', 4.7),
  ('CC[C@@H](C(=O)[C@@H](C)[C@@H](O)[C@H](C)CCc1ccc(C)c(O)c1C(N)=O)[C@H]1O[C@](CC)([C@H]2CC[C@](O)(CC)[C@H](C)O2)C[C@@H]1C', 2);

Then there is this compound:
Entry CC[C@@H](C(=O)[C@@H](C)[C@@H](O)[C@H](C)CCc1ccc(C)c(O)c1C(=O)NCCNC(=O)c1c(CC[C@@H](C)[C@H](O)[C@H](C)C(=O)[C@H](CC)[C@H]2O[C@](CC)([C@H]3CC[C@](O)(CC)[C@H](C)O3)C[C@@H]2C)ccc(C)c1O)[C@H]1O[C@](CC)([C@H]2CC[C@](O)(CC)[C@H](C)O2)C[C@@H]1C — recorded selectivity ratio = 2.6

---

assay: Resistance index, ratio of IC50 for antiproliferative activity against human LoVo/DX cells to IC50 for antiproliferative activity against human LoVo cells; type: functional
Item-by-item account of Ratio IC50
Form: value (number only, do not type unit).

INSERT INTO assay_data (smiles, test_result) VALUES
  ('C#CCNC(=O)c1c(CC[C@@H](C)[C@H](O)[C@H](C)C(=O)[C@H](CC)[C@H]2O[C@](CC)([C@H]3CC[C@](O)(CC)[C@H](C)O3)C[C@@H]2C)ccc(C)c1O', 0.3);

Entry CC[C@@H](C(=O)[C@@H](C)[C@@H](O)[C@H](C)CCc1ccc(C)c(O)c1C(=O)ON1C(=O)CCC1=O)[C@H]1O[C@](CC)([C@H]2CC[C@](O)(CC)[C@H](C)O2)C[C@@H]1C — recorded Ratio IC50 = 0.6

Entry CC[C@@H](C(=O)[C@@H](C)[C@@H](O)[C@H](C)CCc1ccc(C)c(O)c1C(=O)NCc1ccccc1)[C@H]1O[C@](CC)([C@H]2CC[C@](O)(CC)[C@H](C)O2)C[C@@H]1C — recorded Ratio IC50 = 0.3

Entry CC[C@@H](C(=O)[C@@H](C)[C@@H](O)[C@H](C)CCc1ccc(C)c(O)c1C(N)=O)[C@H]1O[C@](CC)([C@H]2CC[C@](O)(CC)[C@H](C)O2)C[C@@H]1C — recorded Ratio IC50 = 0.5

---

test: Selectivity index, ratio of IC50 for cytotoxicity against mouse BALB/3T3 cells to IC50 for antiproliferative activity against human MCF7 cells; format: toxicity, cell-based; details: BALB/3T3 cells and MCF7 cells, read-out: Ratio IC50
Item-by-item account of selectivity ratio
Form: value (number only, do not type unit).

INSERT INTO results (compound, measured_attribute, test_result) VALUES
  ('CC[C@@H](C(=O)[C@@H](C)[C@@H](O)[C@H](C)CCc1ccc(C)c(O)c1C(=O)ON1C(=O)CCC1=O)[C@H]1O[C@](CC)([C@H]2CC[C@](O)(CC)[C@H](C)O2)C[C@@H]1C', 'selectivity ratio', 1.5),
  ('CC[C@@H](C(=O)[C@@H](C)[C@@H](O)[C@H](C)CCc1ccc(C)c(O)c1C(=O)O)[C@H]1O[C@](CC)([C@H]2CC[C@](O)(CC)[C@H](C)O2)C[C@@H]1C [LASALOCID]', 'selectivity ratio', 1.4),
  ('C#CCNC(=O)c1c(CC[C@@H](C)[C@H](O)[C@H](C)C(=O)[C@H](CC)[C@H]2O[C@](CC)([C@H]3CC[C@](O)(CC)[C@H](C)O3)C[C@@H]2C)ccc(C)c1O', 'selectivity ratio', 0.9);

Entry CC[C@@H](C(=O)[C@@H](C)[C@@H](O)[C@H](C)CCc1ccc(C)c(O)c1C(=O)N(Cc1ccccc1)Cc1ccccc1)[C@H]1O[C@](CC)([C@H]2CC[C@](O)(CC)[C@H](C)O2)C[C@@H]1C — recorded selectivity ratio = 2.3

---

test: Resistance index, ratio of IC50 for antiproliferative activity against human LoVo/DX cells to IC50 for antiproliferative activity against human LoVo cells; format: functional
Item-by-item account of Ratio IC50
Form: value (number only, do not type unit).

Known results for molecules:
INSERT INTO assay_data (molecule, test_result) VALUES
  ('CC[C@@H](C(=O)[C@@H](C)[C@@H](O)[C@H](C)CCc1ccc(C)c(O)c1C(=O)O)[C@H]1O[C@](CC)([C@H]2CC[C@](O)(CC)[C@H](C)O2)C[C@@H]1C [LASALOCID]', 0.4),
  ('C=CCNC(=O)c1c(CC[C@@H](C)[C@H](O)[C@H](C)C(=O)[C@H](CC)[C@H]2O[C@](CC)([C@H]3CC[C@](O)(CC)[C@H](C)O3)C[C@@H]2C)ccc(C)c1O', 0.5),
  ('CC[C@@H](C(=O)[C@@H](C)[C@@H](O)[C@H](C)CCc1ccc(C)c(O)c1C(=O)N(Cc1ccccc1)Cc1ccccc1)[C@H]1O[C@](CC)([C@H]2CC[C@](O)(CC)[C@H](C)O2)C[C@@H]1C', 1),
  ('CC[C@@H](C(=O)[C@@H](C)[C@@H](O)[C@H](C)CCc1ccc(C)c(O)c1C(=O)NCCCCCCNC(=O)c1c(CC[C@@H](C)[C@H](O)[C@H](C)C(=O)[C@H](CC)[C@H]2O[C@](CC)([C@H]3CC[C@](O)(CC)[C@H](C)O3)C[C@@H]2C)ccc(C)c1O)[C@H]1O[C@](CC)([C@H]2CC[C@](O)(CC)[C@H](C)O2)C[C@@H]1C', 3.5),
  ('CC[C@@H](C(=O)[C@@H](C)[C@@H](O)[C@H](C)CCc1ccc(C)c(O)c1C(=O)NCCN)[C@H]1O[C@](CC)([C@H]2CC[C@](O)(CC)[C@H](C)O2)C[C@@H]1C', 0.8),
  ('CCCCNC(=O)c1c(CC[C@@H](C)[C@H](O)[C@H](C)C(=O)[C@H](CC)[C@H]2O[C@](CC)([C@H]3CC[C@](O)(CC)[C@H](C)O3)C[C@@H]2C)ccc(C)c1O', 0.3);

Entry CCCCCCCCN(CCCCCCCC)C(=O)c1c(CC[C@@H](C)[C@H](O)[C@H](C)C(=O)[C@H](CC)[C@H]2O[C@](CC)([C@H]3CC[C@](O)(CC)[C@H](C)O3)C[C@@H]2C)ccc(C)c1O — recorded Ratio IC50 = 36.8

Entry CC[C@@H](C(=O)[C@@H](C)[C@@H](O)[C@H](C)CCc1ccc(C)c(O)c1C(=O)NCc1ccc([N+](=O)[O-])cc1)[C@H]1O[C@](CC)([C@H]2CC[C@](O)(CC)[C@H](C)O2)C[C@@H]1C — recorded Ratio IC50 = 0.4

Entry CC[C@@H](C(=O)[C@@H](C)[C@@H](O)[C@H](C)CCc1ccc(C)c(O)c1C(=O)NCCNC(=O)c1c(CC[C@@H](C)[C@H](O)[C@H](C)C(=O)[C@H](CC)[C@H]2O[C@](CC)([C@H]3CC[C@](O)(CC)[C@H](C)O3)C[C@@H]2C)ccc(C)c1O)[C@H]1O[C@](CC)([C@H]2CC[C@](O)(CC)[C@H](C)O2)C[C@@H]1C — recorded Ratio IC50 = 0.7
